Molecular target: recombinant USP30 (amino acids 57-517 of the human sequence) (Homo sapiens (Human))
Sequence (Q70CQ3 57-517): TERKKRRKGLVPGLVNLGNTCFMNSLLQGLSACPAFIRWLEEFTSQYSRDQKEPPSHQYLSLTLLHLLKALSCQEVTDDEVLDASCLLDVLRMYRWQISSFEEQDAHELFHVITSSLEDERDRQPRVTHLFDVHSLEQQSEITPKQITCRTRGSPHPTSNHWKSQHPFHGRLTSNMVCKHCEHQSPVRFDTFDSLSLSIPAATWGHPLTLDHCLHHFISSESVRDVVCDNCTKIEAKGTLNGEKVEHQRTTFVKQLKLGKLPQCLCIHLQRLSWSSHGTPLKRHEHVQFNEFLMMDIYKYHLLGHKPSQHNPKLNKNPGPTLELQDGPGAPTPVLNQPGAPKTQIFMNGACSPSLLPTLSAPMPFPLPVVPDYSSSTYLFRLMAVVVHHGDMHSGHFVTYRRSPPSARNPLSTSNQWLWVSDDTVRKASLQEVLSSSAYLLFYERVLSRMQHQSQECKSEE
Test: In vitro USP30 biochemical assay (Ubiquitin-Rhodamine substrate)
Settings: 1.5 nM recombinant USP30, 25 nM Ubiquitin-Rhodamine, fluorescence
Readout: IC50

CC(C)[C@H](NC(=O)c1ccc(F)cc1)C(=O)Nc1ccc(S(=O)(=O)NC(C)(C)C)cc1 [Compound I-206] ... 0.05 to 1 µM

Query: Record lookup: for recombinant USP30 (amino acids 57-517 of the human sequence) (Homo sapiens (Human)), what IC50 belongs to COc1cc(NC(=O)[C@H](CC2CCOCC2)NC(=O)c2ccc(F)cc2)cnc1S(=O)(=O)NC(C)(C)C [Compound I-75] ?
Response: 0.05 to 1 µM

Query: Record lookup: for recombinant USP30 (amino acids 57-517 of the human sequence) (Homo sapiens (Human)), what IC50 belongs to CC(C)(CO)NS(=O)(=O)c1ccc(NC(=O)[C@@H]2C[C@@H](C3CCCCC3)CN2C(=O)c2ccc(F)cc2)cn1 [Compound I-258] ?
Response: 1 to 10 µM

Query: Record lookup: for recombinant USP30 (amino acids 57-517 of the human sequence) (Homo sapiens (Human)), what IC50 belongs to CC(C)(C)NS(=O)(=O)c1ccc(NC(=O)[C@@H]2C[C@@H](c3ccccc3)CN2C(=O)c2ccc(F)cc2)cc1 [Compound I-49] ?
Response: 0.05 to 1 µM

Query: Record lookup: for recombinant USP30 (amino acids 57-517 of the human sequence) (Homo sapiens (Human)), what IC50 belongs to COc1cc(NC(=O)[C@H](CC2CCOCC2)NC(=O)c2ccc(F)cc2)ccc1S(=O)(=O)NC1CCOCC1 [Compound I-134] ?
Response: 0.05 to 1 µM

Query: Record lookup: for recombinant USP30 (amino acids 57-517 of the human sequence) (Homo sapiens (Human)), what IC50 belongs to CC(C)(C)NS(=O)(=O)c1ccc(NC(=O)[C@H](Cc2ccccc2)NC(=O)C2CCNCC2)cc1 [Compound I-192] ?
Response: 1 to 10 µM

Query: Record lookup: for recombinant USP30 (amino acids 57-517 of the human sequence) (Homo sapiens (Human)), what IC50 belongs to CC(C)C[C@H](NC(=O)c1ccc(F)cc1)C(=O)Nc1ccc(S(=O)(=O)NC(C)(C)CF)cc1 [Compound I-230] ?
Response: 0.05 to 1 µM
